assay: EBV-transformed lymphoblastoid cell viability decrease, dose response, EBV LMP1 NF-kB inhibitor project, CellTiter-Glo, dry powder, replicate tests (AID 624375); conditions: EBV-transformed LCL viability, CellTiter-Glo ATP luminescence, 48 h; at 19.5 µM (top of the series)
Inconclusive results are not listed. Calls of active or inactive are those of the source.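 The calls were made as follows: active = fitted curve reaches -35% activity change at a concentration under twice the top valid dose, in every replicate test; inconclusive = replicate tests disagree on the call; inactive = the rest, including activity in the opposite direction.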
RECORDED METRIC: activity change, negative = inhibition

Example results:
> print(dat)
                           smiles.structure         test.value
1  COc1cccc(/C=N/Nc2ncnc3c2ncn3Cc2ccccc2)c1O  -7.51% (inactive)
2     COc1ccc(-c2cc3nc4n(c(=O)c3s2)CCC4)cc1  -3.35% (inactive)

Now let's try a different one.
Request the reported activity change, negative = inhibition associated with `c1ccc(-c2cn3c4c(sc3n2)CCCC4)cc1`
6.87% (inactive)

Where do these numbers come from? They come from PubChem BioAssay AID624375.
